These data points were gathered from patent US20100222344A1.

- target or test system: EGFR tyrosine kinase (Homo sapiens)
- Construct: Recombinant intracellular fragments of EGFR, erbB2 and erbB4
- Sequence (P00533 669-1210 limits assumed): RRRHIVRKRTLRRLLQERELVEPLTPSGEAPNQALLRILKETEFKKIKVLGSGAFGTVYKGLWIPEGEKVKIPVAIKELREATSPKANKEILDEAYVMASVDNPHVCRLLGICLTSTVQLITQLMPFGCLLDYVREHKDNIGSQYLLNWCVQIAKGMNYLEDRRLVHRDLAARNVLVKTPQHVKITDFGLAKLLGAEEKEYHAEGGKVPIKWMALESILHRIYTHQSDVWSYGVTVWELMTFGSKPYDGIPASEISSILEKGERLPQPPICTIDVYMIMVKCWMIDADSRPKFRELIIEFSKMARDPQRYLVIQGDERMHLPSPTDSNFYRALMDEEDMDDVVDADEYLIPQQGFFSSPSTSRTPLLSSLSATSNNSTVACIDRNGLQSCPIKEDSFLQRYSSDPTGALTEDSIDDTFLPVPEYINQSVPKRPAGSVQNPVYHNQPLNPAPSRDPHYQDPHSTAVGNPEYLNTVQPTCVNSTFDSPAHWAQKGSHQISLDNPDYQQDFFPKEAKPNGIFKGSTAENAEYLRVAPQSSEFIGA
- assay overview: Test (a) protein tyrosine kinase phosphorylation assay, EGFR
- setup conditions: read-out: IC50 Test (a): Inhibition of EGFR tyrosine kinase protein phosphorylation
pIC50: −log10 of the molar value.
quantity name: pIC50

A: C[C@@H](Oc1cccc2ncnc(Nc3ccc(OCC4CCCO4)c(Cl)c3)c12)C(=O)N1CCOCC1 (some centres unmarked)
B: CSCCCOc1ccc(Nc2ncnc3cccc(O[C@H](C)C(=O)N4CCOCC4)c23)cc1Cl
(Q) Sorting ascending by pIC50, which comes first: A or B ? # reply format: chosen label
(A) A
(A: 6.44, B: 6.77)

====

- target or test system: erbB2 tyrosine kinase (Homo sapiens)
- Construct: Recombinant intracellular fragments of EGFR, erbB2 and erbB4
- Sequence (P04626 676-1255 limits assumed): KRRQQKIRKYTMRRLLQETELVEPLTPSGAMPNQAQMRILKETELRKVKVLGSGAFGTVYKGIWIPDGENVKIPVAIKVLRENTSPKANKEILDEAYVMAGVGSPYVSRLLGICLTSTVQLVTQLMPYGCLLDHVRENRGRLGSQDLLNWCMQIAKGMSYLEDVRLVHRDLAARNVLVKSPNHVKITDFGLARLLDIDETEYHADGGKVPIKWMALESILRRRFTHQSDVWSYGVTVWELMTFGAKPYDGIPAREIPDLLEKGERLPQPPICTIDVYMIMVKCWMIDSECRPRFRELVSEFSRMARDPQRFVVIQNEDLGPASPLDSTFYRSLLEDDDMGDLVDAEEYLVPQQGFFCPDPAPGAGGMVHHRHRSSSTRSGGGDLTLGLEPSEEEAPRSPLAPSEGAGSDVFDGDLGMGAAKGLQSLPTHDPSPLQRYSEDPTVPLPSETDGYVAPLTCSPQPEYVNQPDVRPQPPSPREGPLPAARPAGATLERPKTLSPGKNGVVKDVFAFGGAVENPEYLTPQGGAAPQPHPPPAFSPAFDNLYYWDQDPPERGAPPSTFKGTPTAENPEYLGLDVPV
- assay overview: Test (a) protein tyrosine kinase phosphorylation assay, erbB2
- setup conditions: read-out: IC50 Test (a): Inhibition of erbB2 tyrosine kinase protein phosphorylation
pIC50: −log10 of the molar value.
quantity name: pIC50

P: C[C@@H](Oc1cccc2ncnc(Nc3ccc(OCC4CCCO4)c(Cl)c3)c12)C(=O)N1CCOCC1 (some centres unmarked) [Example 2]
Q: CSCCCOc1ccc(Nc2ncnc3cccc(O[C@H](C)C(=O)N4CCOCC4)c23)cc1Cl [Example 3]
(Q) Sorting ascending by pIC50, which comes first: P or Q ? # reply format: chosen label
(A) P
